- SYSTEM: human CaSR (Homo sapiens)
- Sequence (P41180 20-1078): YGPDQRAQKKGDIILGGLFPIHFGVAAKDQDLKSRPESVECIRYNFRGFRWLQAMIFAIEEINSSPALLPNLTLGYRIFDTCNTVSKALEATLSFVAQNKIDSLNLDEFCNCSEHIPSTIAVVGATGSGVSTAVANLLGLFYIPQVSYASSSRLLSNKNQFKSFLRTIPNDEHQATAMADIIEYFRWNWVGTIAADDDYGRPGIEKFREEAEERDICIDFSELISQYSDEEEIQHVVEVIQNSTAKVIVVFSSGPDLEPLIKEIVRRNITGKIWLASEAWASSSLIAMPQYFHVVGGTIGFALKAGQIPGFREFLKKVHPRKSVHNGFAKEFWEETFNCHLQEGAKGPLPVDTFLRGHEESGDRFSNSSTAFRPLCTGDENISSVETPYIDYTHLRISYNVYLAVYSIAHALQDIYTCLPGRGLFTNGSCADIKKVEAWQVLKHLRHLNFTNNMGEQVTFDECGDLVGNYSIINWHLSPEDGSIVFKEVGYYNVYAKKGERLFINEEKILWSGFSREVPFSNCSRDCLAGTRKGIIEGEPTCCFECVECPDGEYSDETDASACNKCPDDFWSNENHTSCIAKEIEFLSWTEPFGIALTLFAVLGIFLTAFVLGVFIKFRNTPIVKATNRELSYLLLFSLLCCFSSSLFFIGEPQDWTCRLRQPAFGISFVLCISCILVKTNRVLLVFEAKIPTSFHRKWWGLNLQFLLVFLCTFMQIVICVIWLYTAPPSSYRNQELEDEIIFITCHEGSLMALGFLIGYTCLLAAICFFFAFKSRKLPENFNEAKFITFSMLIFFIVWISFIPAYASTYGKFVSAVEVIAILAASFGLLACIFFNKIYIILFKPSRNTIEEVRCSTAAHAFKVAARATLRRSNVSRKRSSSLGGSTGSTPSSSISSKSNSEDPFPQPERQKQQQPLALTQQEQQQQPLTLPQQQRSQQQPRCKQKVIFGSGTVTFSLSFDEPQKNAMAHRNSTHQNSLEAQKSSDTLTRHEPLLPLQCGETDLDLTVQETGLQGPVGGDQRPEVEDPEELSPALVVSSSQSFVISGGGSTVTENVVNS
- ASSAY_NAME: Assessment of CaSR agonistic activity (Ca2+ fluorescence, FLIPR, hCaSR-transfected 293E cells)
- STATED_CONDITIONS: human CaSR-expressing 293E cells, 1.5 mM CaCl2 assay buffer, 3-minute change in fluorescence intensity
ENDPOINT_NAME: pEC50
Keep in mind that pEC50 stands for -log10 of concentration in molar terms.

// molecule C[C@H](OC(=O)Nc1cccc(S(=O)(=O)O)c1)[C@H](N)C(=O)O [Example 43] , assay human CaSR (Homo sapiens), pEC50 value: 5.15

// molecule COc1ccc(S(=O)(=O)O)cc1NC(=O)NC[C@H](N)C(=O)O [Example 82] , assay human CaSR (Homo sapiens), pEC50 value: 6.00

// molecule N[C@@H](CNC(=O)Nc1cc(S(=O)(=O)O)ccc1F)C(=O)O [Example 104] , assay human CaSR (Homo sapiens), pEC50 value: 6.31

// molecule Cc1ccc(C(=O)O)cc1NC(=O)NC[C@H](N)C(=O)O [Example 93] , assay human CaSR (Homo sapiens), pEC50 value: 5.30

// molecule N[C@@H](CNC(=O)Nc1cccc(C(=O)O)c1)C(=O)O [Example 85] , assay human CaSR (Homo sapiens), pEC50 value: 5.80
